system: UACC-257 melanoma; assay: NCI tumour cell line growth inhibition, 48 h
ASSAY_READOUT: GI50

Example results:
COMPOUND: O=C1NC(=O)C(c2c[nH]c3ccccc23)=C1c1ccccc1
ASSAY_READOUT: GI50
RESULT: > 25 µM
--
COMPOUND: COc1ccc2c(c1)N(CCO)C1=C(C(=O)OC1)C2c1ccc(OC)c(OC)c1 (centres undefined)
ASSAY_READOUT: GI50
RESULT: 3.38 µM
--
COMPOUND: O=C(Nc1ccccc1)Nc1ccc(Cl)c(Cl)c1
ASSAY_READOUT: GI50
RESULT: 3.73 µM
--
COMPOUND: CNCCN(C)Cc1cn[nH]c1-c1ccc(OC2CC(OCCC3CCOCC3)C2)cc1 (centres undefined)
ASSAY_READOUT: GI50
RESULT: 61.6 µM
--
COMPOUND: O=C(c1ccco1)c1c(C(F)(F)F)n([O-])c2ccc(F)cc2[n+]1=O
ASSAY_READOUT: GI50
RESULT: 1.47 µM

Your task in this section: give GI50 for each listed record.
1. Fc1ccc(-c2nn3c(COc4ccc(Cl)cc4Cl)nnc3s2)cc1Oc1ccccc1
2. COc1ccc2nc3cc(Cl)ccc3c(Nc3cc(C(C)C)c(O)cc3C)c2c1
3. N=C1C(c2nc3ccccc3s2)=C(O)CN1c1cc(Cl)cc(Cl)c1

Result:
55.4 µM
1.35 µM
40.2 µM

Task: Fill in: GI50 of "CC/C(=N/N=C(N)N)c1ccc(NC(=O)Nc2ccc(/C(CC)=N/N=C(N)N)cc2)cc1" is ___
Result: 13.8 µM
